In this section we review reported pKd values for a set of binders.
Target: T1, mouse FcRn (mouse, UniProt Q61559 22-297; P01887 21-119, limits assumed)
T1 sequence (looked up) 1: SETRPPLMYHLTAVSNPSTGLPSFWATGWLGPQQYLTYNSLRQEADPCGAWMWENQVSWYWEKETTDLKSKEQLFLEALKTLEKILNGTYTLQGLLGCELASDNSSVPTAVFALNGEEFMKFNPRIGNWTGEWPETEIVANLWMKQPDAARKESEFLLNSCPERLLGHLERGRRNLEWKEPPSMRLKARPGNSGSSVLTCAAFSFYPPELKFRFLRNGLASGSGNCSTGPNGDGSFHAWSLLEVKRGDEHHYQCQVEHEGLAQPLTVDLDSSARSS
T1 sequence (looked up) 2: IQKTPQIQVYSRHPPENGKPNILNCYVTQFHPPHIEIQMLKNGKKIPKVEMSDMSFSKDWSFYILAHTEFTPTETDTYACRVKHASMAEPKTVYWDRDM
Assay: SPR, pH 7.4
Value format note: pKd is -log10 of concentration (mol/L); just state the number.

// below: answered binders
binder | pKd
Fc Fragment 11 (other, Human IgG1 Fc fragment; substitutions already in the entry) DKTHTCPPCPAPELLGGPSVFLFPPKPKDTLYITREPEVTCVVVDVSHEDPEVKFNWYVDGVEVHNAKTKPREEQYNSTYRVVSVLTVLHQDWLNGKEYKCKVSNKALPAPIEKTISKAKGQPREPQVYTLPPSRDELTKNQVSLTCLVKGFYPSDIAVEWESNGQPENNYKTTPPVLDSDGSFFLYSKLTVDKSRWQQGNVFSCSVLHEALHFHYTQKSLSLSPG | 8.39
Fc Fragment 14 (other, Human IgG1 Fc fragment; substitutions already in the entry) DKTHTCPPCPAPELLGGPSVFLFPPKPKDTLYITREPEVTCVVVDVSHEDPEVKFNWYVDGVEVHNAKTKPREEQYNSTYRVVSVLTVLHQDWLNGKEYKCKVSNKALPAPIEKTISKAKGQPREPQVYTLPPSRDELTKNQVSLTCLVKGFYPSDIAVEWESNGQPENNYKTTPPVLDSDGSFFLYSKLTVDKSRWQQGNVFSCSVLHEALRFHYTQKSLSLSPG | 8.63
Fc Fragment 3 (other, Human IgG1 Fc fragment; substitutions already in the entry; also called Fc197) DKTHTCPPCPAPELLGGPSVFLFPPKPKDTLYITREPEVTCVVVDVSHEDPEVKFNWYVDGVEVHNAKTKPREEQYNSTYRVVSVLTVLHQDWLNGKEYKCKVSNKALPAPIEKTISKAKGQPREPQVYTLPPSRDELTKNQVSLTCLVKGFYPSDIAVEWESNGQPENNYKTTPPVLDSDGSFFLYSKLTVDKSRWQQGNVFSCSVMHEALKYHYTQKSLSLSPG | 8.62

Asked: Query (binder): Fc Fragment 2 (other, Human IgG1 Fc fragment; substitutions already in the entry; also called Fc195) DKTHTCPPCPAPELLGGPSVFLFPPKPKDTLYITREPEVTCVVVDVSHEDPEVKFNWYVDGVEVHNAKTKPREEQYNSTYRVVSVLTVLHQDWLNGKEYKCKVSNKALPAPIEKTISKAKGQPREPQVYTLPPSRDELTKNQVSLTCLVKGFYPSDIAVEWESNGQPENNYKTTPPVLDSDGSFFLYSKLTVDKSRWQQGNVFSCSVLHEALKFHYTQKSLSLSPG ; field requested: pKd
Given back: 8.59
